- targetOrSystem: EGFR Del19/T790M/C797S (H1975-clone #28) (Homo sapiens, UniProt P00533, T790M/C797S, form not given)
- Sequence (P00533 with tags, fused parts or gaps DEL746-750/T790M/C797S, form open): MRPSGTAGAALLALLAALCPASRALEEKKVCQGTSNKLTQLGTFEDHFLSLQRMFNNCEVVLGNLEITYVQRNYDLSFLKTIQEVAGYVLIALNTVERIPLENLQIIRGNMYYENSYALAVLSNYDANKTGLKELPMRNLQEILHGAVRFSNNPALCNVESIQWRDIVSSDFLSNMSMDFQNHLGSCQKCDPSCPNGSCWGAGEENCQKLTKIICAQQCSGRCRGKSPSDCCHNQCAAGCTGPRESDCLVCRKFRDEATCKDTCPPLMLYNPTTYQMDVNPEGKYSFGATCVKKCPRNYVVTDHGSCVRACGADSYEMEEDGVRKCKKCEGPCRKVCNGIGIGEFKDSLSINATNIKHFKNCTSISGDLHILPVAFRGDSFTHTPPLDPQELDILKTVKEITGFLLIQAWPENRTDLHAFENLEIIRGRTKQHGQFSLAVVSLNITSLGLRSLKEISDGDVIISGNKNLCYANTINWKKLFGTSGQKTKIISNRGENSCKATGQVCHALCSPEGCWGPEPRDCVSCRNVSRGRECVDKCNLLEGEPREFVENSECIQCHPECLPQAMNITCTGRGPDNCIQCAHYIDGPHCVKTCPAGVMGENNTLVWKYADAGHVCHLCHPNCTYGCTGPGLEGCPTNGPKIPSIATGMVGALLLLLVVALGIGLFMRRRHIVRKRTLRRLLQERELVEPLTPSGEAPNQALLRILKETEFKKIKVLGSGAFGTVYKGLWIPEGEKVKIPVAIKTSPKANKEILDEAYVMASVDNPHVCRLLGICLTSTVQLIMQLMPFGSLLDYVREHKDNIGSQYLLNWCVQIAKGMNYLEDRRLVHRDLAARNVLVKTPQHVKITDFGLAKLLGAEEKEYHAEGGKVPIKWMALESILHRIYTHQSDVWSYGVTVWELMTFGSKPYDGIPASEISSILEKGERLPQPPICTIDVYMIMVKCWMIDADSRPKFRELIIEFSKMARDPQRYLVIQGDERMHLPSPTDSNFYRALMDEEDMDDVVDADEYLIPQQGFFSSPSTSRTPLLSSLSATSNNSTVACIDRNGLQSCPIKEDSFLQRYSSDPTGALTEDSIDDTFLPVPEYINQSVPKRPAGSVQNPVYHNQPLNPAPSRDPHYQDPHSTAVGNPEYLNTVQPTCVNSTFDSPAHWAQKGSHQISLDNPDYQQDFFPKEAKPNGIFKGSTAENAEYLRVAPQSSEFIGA
- protocolDescription: EGFR degradation, HTRF total-EGFR assay, H1975-clone #28 (DTC)
- Format: cell-based
- conditionSet: H1975-clone #28 Del19/T790M/C797S, 16 h treatment
- Description: H1975-clone #28 (Del19/T790M/C797S, or abbr: DTC), H1975-clone #23 (Del19/C797S, or abbr: DC), H1975-clone #25 (L858R/T790M/C797S, or abbr: LTC) and H1975-clone #8 (L858R/C797S, or abbr: LC). […] The inhibition (degradation) percentage of the compound was calculated by the following equation: […] High control=Cell group with added DMSO and without compound, indicating microplate readings without EGFR degradation. […]
Binary call on Degradation H1975 # 28 DTC with cut-off 80: strictly below means True, and equality or higher means False.

These solved cases illustrate the format of a correct answer.
* Cc1cc2cc(n1)-c1cnn(C)c1OC[C@H]1C[C@@H](CN3/C(=N/C2=O)Nc2ccc(N4CCN([C@@H]5CCN(c6ccc(C7CCC(=O)NC7=O)nc6C)C[C@H]5F)CC4)cc23)C1 (some centres unmarked) | False
* Cc1cc2cc(n1)-c1cnn(C)c1OC[C@H]1C[C@@H](CN3/C(=N/C2=O)Nc2ccc(N4CCN(C5CCN(c6cc(F)c([C@H]7CCC(=O)NC7=O)c(F)c6)CC5)C[C@H]4C)cc23)C1 | False
* Cc1cc2cc(n1)-c1cnn(C)c1OC[C@H]1C[C@@H](CN3/C(=N/C2=O)Nc2ccc(N4CCN(C5CCN(c6cc(F)c([C@H]7CCC(=O)NC7=O)c(F)c6)CC5)[C@@H](CO)C4)cc23)C1 | False
* Cc1cc2cc(n1)-c1cnn(C)c1OC[C@H]1C[C@@H](CN3/C(=N/C2=O)Nc2ccc(N4CCN([C@H]5CCN(c6ccc(C7CCC(=O)NC7=O)nc6C)C[C@H]5F)CC4)cc23)C1 (some centres unmarked) | False

Pending compound:
(Q) Does the reported Degradation H1975 # 28 DTC of Cc1cc2cc(n1)-c1cnn(C)c1OC[C@H]1C[C@@H](CN3/C(=N/C2=O)Nc2ccc(N4CCC5(CCN(C6CCN(c7cc(F)c([C@H]8CCC(=O)NC8=O)c(F)c7)CC6)C5)C4)cc23)C1 (some centres unmarked) stay below 80?
(A) True

###

Recorded Degradation H1975 # 28 DTC by entry
- targetOrSystem: EGFR Del19/T790M/C797S (H1975-clone #28) (Homo sapiens, UniProt P00533, T790M/C797S, form not given)
- protocolDescription: EGFR degradation, HTRF total-EGFR assay, H1975-clone #28 (DTC)
- Assay type: cell-based
- conditionSet: H1975-clone #28 Del19/T790M/C797S, 16 h treatment
Could you respond with only the numeric value?

Answered examples (3):
* Cc1cc2cc(n1)-c1cnn(C)c1OC[C@H]1C[C@H](CN3/C(=N/C2=O)Nc2ccc(CN4CCN(C(=O)C5CN(c6cc(F)c([C@H]7CCC(=O)NC7=O)c(F)c6)CC5(C)C)CC4)cc23)C1 (stereo partly shown) [Example 2] | 84.3
* Cc1cc2cc(n1)-c1cnn(C)c1OC[C@H]1C[C@@H](CN3/C(=N/C2=O)Nc2ccc(N4CCN(CC5CN(c6cc(F)c([C@H]7CCC(=O)NC7=O)c(F)c6)C5)CC4=O)cc23)C1 [Example 11] | 91.5
* Cc1cc2cc(n1)-c1cnn(C)c1OC[C@H]1C[C@@H](CN3/C(=N/C2=O)Nc2ccc(N(C)C4CC5(C4)CN(C4CCN(c6cc(F)c(C7CCC(=O)NC7=O)c(F)c6)CC4)C5)cc23)C1 (stereo partly shown) [Example 136] | 85.0

Measured Degradation H1975 # 28 DTC of Cc1cc2cc(n1)-c1cnn(C)c1OC[C@H]1C[C@@H](CN3/C(=N/C2=O)Nc2ccc(N4CCN(C5CCN(c6cc(F)c([C@H]7CCC(=O)NC7=O)c(F)c6)CC5)C(=O)C4)cc23)C1 [Example 25] : 89.9

The recorded Degradation H1975 # 28 DTC for entry Cc1cc2cc(n1)-c1cnn(C)c1OC[C@H]1C[C@@H](CN3/C(=N/C2=O)Nc2ccc(N4CCN([C@@H]5CCN(c6ccc(C7CCC(=O)NC7=O)nc6C)C[C@@H]5F)CC4)cc23)C1 (stereo partly shown) [Example 62] equals 89.1

For record Cc1cc2cc(n1)-c1cnn(C)c1OC[C@H]1C[C@@H](CN3/C(=N/C2=O)Nc2ccc(N4C5CCC4CN(C4CCN(c6ccc(C7CCC(=O)NC7=O)nc6C)CC4)C5)cc23)C1 (stereo partly shown) [Example 127] the listed Degradation H1975 # 28 DTC is 85.5

The recorded Degradation H1975 # 28 DTC for entry Cc1cc2cc(n1)-c1cnn(C)c1OC[C@H]1C[C@@H](CN3/C(=N/C2=O)Nc2ccc(CN4CCN(C(=O)C5CN(c6cc(F)c([C@H]7CCC(=O)NC7=O)c(F)c6)C5)CC4)cc23)C1 [Example 3] equals 86.7

The compound listed as Cc1cc2cc(n1)-c1cnn(C)c1OC[C@H]1C[C@@H](CN3/C(=N/C2=O)Nc2ccc(N4CCN(C5CCN(c6ccc(C7CCC(=O)NC7=O)nc6)CC5)C[C@@H]4C)cc23)C1 (stereo partly shown) [Example 36] shows Degradation H1975 # 28 DTC equal to 78.0

Value of Degradation H1975 # 28 DTC reported for the compound Cc1cc2cc(n1)-c1cnn(C)c1OC[C@H]1C[C@@H](CN3/C(=N/C2=O)Nc2ccc(N(C)C4CC5(C4)CN(C4CCN(c6ccc(C7CCC(=O)NC7=O)nc6C)CC4)C5)cc23)C1 (stereo partly shown) [Example 112] is 75.2

For record Cc1cc2cc(n1)-c1cnn(C)c1OC[C@H]1C[C@@H](CN3/C(=N/C2=O)Nc2ccc(N4CCN(C5CCN(c6ccc(C7CCC(=O)NC7=O)nc6C)CC5)C[C@H]4C)cc23)C1 (stereo partly shown) [Example 34] the listed Degradation H1975 # 28 DTC is 89.6

###

- targetOrSystem: EGFR Del19/T790M/C797S (H1975-clone #28) (Homo sapiens, UniProt P00533, T790M/C797S, form not given)
- protocolDescription: EGFR degradation, HTRF total-EGFR assay, H1975-clone #28 (DTC)
- Assay type: cell-based
- conditionSet: H1975-clone #28 Del19/T790M/C797S, 16 h treatment
assayMetric: Degradation H1975 # 28 DTC
Note: the reply should be a number with no unit written.

- Cc1cc2cc(n1)-c1cnn(C)c1OC[C@H]1C[C@@H](CN3/C(=N/C2=O)Nc2ccc(N4CCN(CCNc5cc(F)c([C@H]6CCC(=O)NC6=O)c(F)c5)CC4)cc23)C1 (single isomer, unassigned): 77.1
- Cc1cc2cc(n1)-c1cnn(C)c1OC[C@H]1C[C@@H](CN3/C(=N/C2=O)Nc2ccc(N4CCN(C5CCN(c6cc(F)c([C@H]7CCC(=O)NC7=O)c(F)c6)CC5)CC4=O)cc23)C1: 90.6
- Cc1cc2cc(n1)-c1cnn(C)c1OC[C@H]1C[C@@H](CN3/C(=N/C2=O)Nc2ccc(N4CCN(CCc5cc(F)c([C@H]6CCC(=O)NC6=O)c(F)c5)CC4=O)cc23)C1: 90.9
- Cc1cc2cc(n1)-c1cnn(C)c1OC[C@H]1C[C@@H](CN3/C(=N/C2=O)Nc2ccc(N4CCC(N5CCN(c6cnc(C7CCC(=O)NC7=O)cc6C)C[C@@H]5C)CC4)cc23)C1 (some centres unmarked): 82.2

Here is the next item to consider.
get_value(item= Cc1cc2cc(n1)-c1cnn(C)c1OC[C@H]1C[C@@H](CN3/C(=N/C2=O)Nc2ccc(N4CC[C@H](N5CCN(c6ccc(C7CCC(=O)NC7=O)nc6C)CC5)C(F)(F)C4)cc23)C1 (some centres unmarked) , readout=Degradation H1975 # 28 DTC) returns 84.1

###

- targetOrSystem: EGFR L858R/T790M/C797S (H1975-clone #25) (Homo sapiens, UniProt P00533, C797S/L858R/T790M)
- Construct: expressed in transfected cells; host or cells: H1975 (clone #25), lentiviral transduction, endogenous EGFR knocked out
- Sequence (P00533 25-1210 T790M/C797S/L858R): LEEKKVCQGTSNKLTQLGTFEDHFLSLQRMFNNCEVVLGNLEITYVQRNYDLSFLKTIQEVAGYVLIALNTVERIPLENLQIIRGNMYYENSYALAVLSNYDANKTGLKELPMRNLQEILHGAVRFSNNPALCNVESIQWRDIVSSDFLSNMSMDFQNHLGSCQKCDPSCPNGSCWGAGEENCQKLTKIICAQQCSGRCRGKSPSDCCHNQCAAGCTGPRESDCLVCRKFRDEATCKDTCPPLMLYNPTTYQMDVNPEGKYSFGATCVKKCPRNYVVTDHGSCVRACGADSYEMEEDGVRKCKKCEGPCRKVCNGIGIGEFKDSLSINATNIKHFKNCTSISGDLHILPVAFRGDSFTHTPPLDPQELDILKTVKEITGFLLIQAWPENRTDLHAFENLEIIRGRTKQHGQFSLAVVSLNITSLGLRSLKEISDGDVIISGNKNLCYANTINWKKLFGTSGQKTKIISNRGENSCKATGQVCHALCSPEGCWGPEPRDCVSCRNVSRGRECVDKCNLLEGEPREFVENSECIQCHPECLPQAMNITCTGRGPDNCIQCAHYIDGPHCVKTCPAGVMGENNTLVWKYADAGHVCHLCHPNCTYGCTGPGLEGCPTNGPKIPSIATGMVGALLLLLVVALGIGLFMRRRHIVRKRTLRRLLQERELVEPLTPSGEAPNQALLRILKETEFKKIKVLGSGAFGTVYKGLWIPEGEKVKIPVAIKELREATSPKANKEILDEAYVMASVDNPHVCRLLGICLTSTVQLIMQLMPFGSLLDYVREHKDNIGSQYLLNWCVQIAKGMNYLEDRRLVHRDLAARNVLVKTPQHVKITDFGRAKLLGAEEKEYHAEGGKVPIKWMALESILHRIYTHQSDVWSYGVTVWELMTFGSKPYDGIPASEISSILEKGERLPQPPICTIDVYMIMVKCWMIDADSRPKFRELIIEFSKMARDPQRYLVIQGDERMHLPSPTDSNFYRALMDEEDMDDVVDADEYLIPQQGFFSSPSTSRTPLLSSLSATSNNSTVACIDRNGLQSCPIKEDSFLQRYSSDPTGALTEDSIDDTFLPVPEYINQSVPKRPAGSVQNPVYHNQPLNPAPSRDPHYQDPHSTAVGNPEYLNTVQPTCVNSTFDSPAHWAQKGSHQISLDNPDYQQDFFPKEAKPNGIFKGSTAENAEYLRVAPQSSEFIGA
- protocolDescription: EGFR degradation, HTRF total-EGFR assay, H1975-clone #25 (LTC)
- Format: cell-based
- conditionSet: H1975-clone #25 L858R/T790M/C797S, 16 h treatment
assayMetric: Degradation H1975 # 25-LTC
// return just the number, without any unit appended

Before answering, review these 4 worked examples.
- Cc1cc2cc(n1)-c1cnn(C)c1OC[C@H]1C[C@@H](CN3/C(=N/C2=O)Nc2ccc(N4CCN(C5CCN(c6cnc(C7CCC(=O)NC7=O)cc6C)CC5)CC4)cc23)C1 (some centres unmarked) [Example 40]: 93.6
- Cc1cc2cc(n1)-c1cnn(C)c1OC[C@H]1C[C@@H](CN3/C(=N/C2=O)Nc2ccc(N4C5CCC4CN(C4CCN(c6ccc(C7CCC(=O)NC7=O)nc6C)CC4)C5)cc23)C1 (some centres unmarked) [Example 127]: 96.0
- COC[C@@H]1CN(c2ccc3c(c2)N2C[C@H]4C[C@@H](COc5c(cnn5C)-c5cc(cc(C)n5)C(=O)/N=C/2N3)C4)CCN1C1CCN(c2ccc(C3CCC(=O)NC3=O)nc2C)CC1 (some centres unmarked) [Example 109]: 90.4
- Cc1cc2cc(n1)-c1cnn(C)c1OC[C@H]1C[C@@H](CN3/C(=N/C2=O)Nc2ccc(N4CCN(C5CCN(c6ccc(C7CCC(=O)NC7=O)nc6C)CC5)C[C@H]4C)cc23)C1 (some centres unmarked) [Example 34]: 93.3

Measured Degradation H1975 # 25-LTC, Cc1cc2cc(n1)-c1cnn(C)c1OC[C@H]1C[C@@H](CN3/C(=N/C2=O)Nc2ccc(N4CCC(N5CCN(c6cc(F)c([C@H]7CCC(=O)NC7=O)c(F)c6)CC5)CC4)cc23)C1 [Example 17] : 88.3
